Target: Human AR (Homo sapiens (Human))
Sequence (P10275 whole entry): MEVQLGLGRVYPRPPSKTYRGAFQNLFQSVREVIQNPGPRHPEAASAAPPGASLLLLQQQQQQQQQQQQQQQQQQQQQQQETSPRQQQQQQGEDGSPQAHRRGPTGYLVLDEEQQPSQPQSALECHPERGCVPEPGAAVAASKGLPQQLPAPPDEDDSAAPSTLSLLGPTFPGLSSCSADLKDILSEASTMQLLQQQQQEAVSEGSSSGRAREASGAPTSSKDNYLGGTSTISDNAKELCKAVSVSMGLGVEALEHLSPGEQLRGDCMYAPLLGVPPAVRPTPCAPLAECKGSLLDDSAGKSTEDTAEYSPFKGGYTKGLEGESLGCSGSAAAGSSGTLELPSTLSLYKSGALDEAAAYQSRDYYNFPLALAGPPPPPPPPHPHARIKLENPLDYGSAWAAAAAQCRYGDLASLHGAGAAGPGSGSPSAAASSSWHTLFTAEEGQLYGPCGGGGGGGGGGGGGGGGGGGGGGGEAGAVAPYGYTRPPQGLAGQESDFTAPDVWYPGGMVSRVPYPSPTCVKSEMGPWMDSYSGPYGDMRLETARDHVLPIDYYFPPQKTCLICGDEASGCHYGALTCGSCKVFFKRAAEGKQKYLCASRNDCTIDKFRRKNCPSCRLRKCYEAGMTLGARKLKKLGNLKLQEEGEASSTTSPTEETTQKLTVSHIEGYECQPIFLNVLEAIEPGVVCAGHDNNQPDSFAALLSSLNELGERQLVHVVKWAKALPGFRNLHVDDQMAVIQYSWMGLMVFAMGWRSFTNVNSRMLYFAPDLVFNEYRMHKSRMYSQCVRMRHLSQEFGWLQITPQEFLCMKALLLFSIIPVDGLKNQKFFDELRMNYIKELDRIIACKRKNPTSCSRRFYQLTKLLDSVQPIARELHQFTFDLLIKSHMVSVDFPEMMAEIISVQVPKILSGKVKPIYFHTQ
Test: AR antagonist assay (GRE-LUC luciferase, transfected HEK-293 cells, with 0.1 nM R1881)
Settings: with 0.1 nM R1881
Reported values of pIC50 for individual entries
Keep in mind that pIC50 stands for -log10 of concentration in molar terms.

Guide cases for pIC50, answers given:
>>> experimental_value("CC1(C)C(=O)N(c2ccc(C#N)c(C(F)(F)F)c2)C(=O)N1c1ccc(CNC(=O)c2cccnc2)c(F)c1 [Compound 29]")
6.04
>>> experimental_value("Cc1ccccc1C(=O)NCc1ccc(N2C(=S)N(c3ccc(C#N)c(F)c3)C(=O)C2(C)C)cc1F [Compound 71]")
6.23
>>> experimental_value("Cn1ccnc1C(=O)NCc1ccc(N2C(=S)N(c3ccc(C#N)c(C(F)(F)F)c3)C(=O)C2(C)C)cc1F [Compound 4]")
6.41

Entry CC1(C)C(=O)N(c2ccc(C#N)c(C(F)(F)F)c2)C(=S)N1c1ccc(CNC(=O)c2cncnc2)c(F)c1 [Compound 15] under Human AR (Homo sapiens (Human)) had pIC50 of 6.49

Human AR (Homo sapiens (Human)) pIC50 of CC1(C)C(=O)N(c2ccc(C#N)c(C(F)(F)F)c2)C(=S)N1c1ccc(CNC(=O)c2ccccn2)c(F)c1 [Compound 8] is 7.33

The reported Human AR (Homo sapiens (Human)) pIC50 of Cc1ncsc1C(=O)NCc1ccc(N2C(=S)N(c3ccc(C#N)c(C(F)(F)F)c3)C(=O)C2(C)C)cc1Cl [Compound 32] is 6.92

Human AR (Homo sapiens (Human)) data for Cc1ncsc1C(=O)NCc1ccc(N2C(=S)N(c3ccc(C#N)c(C(F)(F)F)c3)C(=O)C2(C)C)cc1 [Compound 39] ; its pIC50: 6.70

For the compound CC1(C)C(=O)N(c2ccc(C#N)c(F)c2)C(=S)N1c1ccc(CNC(=O)c2ccccn2)c(F)c1 [Compound 69] , the measured pIC50 on Human AR (Homo sapiens (Human)) was 6.42

Result for CC(C)(C)C(=O)NCc1ccc(N2C(=S)N(c3ccc(C#N)c(C(F)(F)F)c3)C(=O)C2(C)C)cc1F [Compound 6] , tested on Human AR (Homo sapiens (Human)), pIC50: 6.11

Measured pIC50 for this entry CC1(C)C(=O)N(c2ccc(C#N)c(C(F)(F)F)c2)C(=S)N1c1ccc(CNC(=O)c2ncc[nH]2)c(F)c1 [Compound 3] on Human AR (Homo sapiens (Human)): 6.74

* * *

Molecular target: Human AR (Homo sapiens (Human))
Test: AR antagonist assay (GRE-LUC luciferase, transfected HEK-293 cells, with 0.1 nM R1881)
Assay type: cell-based
Conditions: HEK293
Protocol: Human AR cDNA cloned into pCMV vector, GRE-LUC, and CMV-renilla-LUC were used to transfect cells. HEK-293 cells (ATCC) were plated at 120,000 cells per well of a 24 well plate in DME+5% csFBS (Fisher Scientific, Waltham, Mass.). The cells were transfected using Lipofectamine (Life Technologies, Carlsbad, Calif.) with 0.25 μg GRE-LUC, 0.010 μg CMV-LUC (renilla luciferase) and 25 ng of the AR. […] The IC50 or EC50 values were determined using non-linear regression and […] logistics fitting.
Reported inhibition at 1 µM values for a set of compounds
Use % as the unit, but write only the number.

Solved entries (count: 3):
>>> experimental_value("Cc1ccccc1C(=O)NCc1ccc(N2C(=S)N(c3ccc(C#N)c(C(F)(F)F)c3)C(=O)C2(C)C)cc1F")
94
>>> experimental_value("Cn1nccc1C(=O)NCc1ccc(N2C(=S)N(c3ccc(C#N)c(C(F)(F)F)c3)C(=O)C2(C)C)cc1F")
95
>>> experimental_value("CC1(C)C(=O)N(c2ccc(C#N)c(C(F)(F)F)c2)C(=S)N1c1ccc(CN2Cc3ncccc3C2=O)c(F)c1")
90

get_value(item= "Cc1ncc(C(=O)NCc2ccc(N3C(=S)N(c4ccc(C#N)c(C(F)(F)F)c4)C(=O)C3(C)C)cc2F)s1" , readout=inhibition at 1 µM) returns 95

Per the records, this compound ( CC1CC1C(=O)NCc1ccc(N2C(=S)N(c3ccc(C#N)c(C(F)(F)F)c3)C(=O)C2(C)C)cc1F (stereo not drawn) ) has inhibition at 1 µM equal to 88

Form: compound = "Cc1ncsc1C(=O)NCc1ccc(N2C(=S)N(c3cnc(C#N)c(C(F)(F)F)c3)C(=O)C2(C)C)cc1F" ; inhibition at 1 µM = 93

These measurements were taken from patent US11292782B2.
